This section lists pKi readings for Amine oxidase [flavin-containing] B (Bos taurus).
Please report pKi as the negative decimal logarithm of the molar concentration, giving only the number.

Here are 3 compounds together with their reported answers.
compound: [N-]=[N+]=NC[C@@H]1CN(n2cccc2)C(=O)O1
recorded.value: 4.62

compound: [N-]=[N+]=NC[C@H]1CN(n2cccc2)C(=O)O1
recorded.value: 3.70

compound: O=C1O[C@@H](CO)CN1n1cccc1
recorded.value: 5.05

Now for another entry.
Ask: Form field: reported pKi of COC[C@@H]1CN(c2ccc(OCC[C@H](O)C(F)(F)F)cc2)C(=O)O1 [(R/R)BEFLOXATONE]
Result: 6.66
